Recorded measurements of HER effect + SAF (crop damage with safener), one per entry
# System: ZEAMA Sileno
# test protocol: Seed treatment with safener; post-emergence herbicide application
# Type: in vivo, maize
# recorded conditions: HER dose 8 g a.i./ha, Cyprosulfamide seed treatment 0.5 g a.i./kg seed, Final assessment
The reply should contain only the number, in %.

Recorded results for 5 compounds are shown here.
> print(dat)
                                   compound  measured.target  measurement
1  C=CC1(C(=O)NC2COC(C(=O)OCCOC)C2)CC(c2cc(F)cc(F)c2)=NO1 (mixture of isomers)     ZEAMA Sileno            0
2  CC1(C(=O)NC2CC=C(C(=O)NS(C)(=O)=O)C2)CC(c2cc(F)cc(F)c2)=NO1 (mixture of isomers)     ZEAMA Sileno           35
3  CN(C)C(=O)SCCOC(=O)C1C=CC(NC(=O)C2(C)CC(c3cc(F)cc(F)c3)=NO2)C1 (stereo not shown)     ZEAMA Sileno            0
4  CC1(C(=O)NC2C=CC(C(=O)O)C2)CC(c2cc(F)cc(F)c2)=NO1 (stereo not shown)     ZEAMA Sileno            5
5  C=CC1(C(=O)NC2COC(C(=O)OCCCl)C2)CC(c2cc(F)cc(F)c2)=NO1 (mixture of isomers)     ZEAMA Sileno           10

IN: Query: HER effect + SAF (crop damage with safener); subject: C=CC1(C(=O)NC2COC(C(=O)OC)C2)CC(c2cc(F)cc(F)c2)=NO1 (stereo not shown) [Example 1.70]
OUT: 22

IN: Okay, and CC1(C(=O)NC2COC(C(=O)OCc3cccc(F)c3)C2)CC(c2cc(F)cc(F)c2)=NO1 (mixture of isomers) ?
OUT: 0

---

# Tested on: ZEAMA Sileno
# test protocol: Seed treatment with safener; post-emergence herbicide application
# Type: in vivo, maize
# recorded conditions: HER dose 2 g a.i./ha, Cyprosulfamide seed treatment 0.5 g a.i./kg seed, Final assessment
Recorded measurements of HER effect + SAF (crop damage with safener), one per entry
The reply should contain only the number, in %.

Recorded results for 3 molecules are shown here.
> print(dat)
                                   molecule  measured.target  measurement
1  C=CC1(C(=O)NC2COC(C(=O)OCCOC)C2)CC(c2cc(F)cc(F)c2)=NO1 (mixture of isomers) [Example 1.66]     ZEAMA Sileno            0
2  COCCOC(=O)C1C=CC(NC(=O)C2(C)CC(c3cc(Cl)cc(C#N)c3)=NO2)C1 (centres unmarked) [Example 1.5]     ZEAMA Sileno            0
3  CCCSCCOC(=O)C1C=CC(NC(=O)C2(C)CC(c3cc(F)cc(F)c3)=NO2)C1 (centres unmarked) [Example 1.34]     ZEAMA Sileno            0

Here's the next entry for you.
IN: Query: HER effect + SAF (crop damage with safener); subject: CC1(C(=O)NC2C=CC(C(=O)OCCSC(F)(F)F)C2)CC(c2cc(F)cc(F)c2)=NO1 (centres unmarked) [Example 1.38]
OUT: 0

---

# System: ZEAMA Abraxas
# test protocol: Tank-mix; post-emergence, crop damage with and without safener
# Type: in vivo, maize
# recorded conditions: HER 2 g a.i./ha, cyprosulfamide 50 g a.i./ha
# Experimental: Seeds of crops (spring wheat, TRZAS; spring barley, HORVS; maize, ZEAMA) were placed in sandy loam soil in peat pots, covered with soil and cultivated in a greenhouse under good growth conditions. Two to three weeks after sowing, the test plants were treated at the 1 to 3-leaf stage. […]
Recorded measurements of Reduction [Difference], one per entry
Could you respond with only the numeric value?

> print(dat)
                                   molecule         outcome.measure  measurement
1  C=CC1(C(=O)NC2C=C(C(=O)OC)OC2)CC(c2cc(C)cc(C)c2)=NO1 (stereo not shown)  Reduction [Difference]           22

IN: Query: Reduction [Difference]; subject: CCCSCCOC(=O)C1C=CC(NC(=O)C2(C)CC(c3cc(F)cc(F)c3)=NO2)C1 (stereo not shown)
OUT: 25

IN: Okay, and COC(=O)C1C=CC(NC(=O)C2(C)CC(c3cc(F)cc(F)c3)=NO2)C1 (stereo not shown) ?
OUT: 60

IN: Okay, and CC1(C(=O)NC2C=CC(C(=O)OCCSC(F)(F)F)C2)CC(c2cc(F)cc(F)c2)=NO1 (stereo not shown) ?
OUT: 25
